Test system: MILI (PIWIL2) piRISC loaded with L1MC piRNA (26 nt);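 further: 1 nM active piRISC with 0.1 nM target library at 33 °C single turnover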
ASSAY: pre-steady-state target cleavage rate (min^-1); guide: L1MC piRNA 5'p-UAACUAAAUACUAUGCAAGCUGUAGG; MIWI and MILI are mouse PIWI proteins and EfPiwi is from a freshwater sponge; tags in brackets are library labels; higher = faster piRNA-guided slicing of the target
CONDITION: auxiliary factor: 500 nM mouse GTSF1
Assignment: determine reported pre-steady-state target cleavage rate for the given sequences.
One number for each entry.

Solved entries (count: 5):
SEQUENCE_TEXT	READOUT_NUMBER
UCCUGCUACAGCUUGCCUAGUAUUUAGUUA	0.222
UCCUGGUACAGCUUGCAAAGUUUUUAGUUA	0.0248
UCCUGGUAAAGCUUGCAUAGUAUUUAGUUA	0.183
UCCUGGAACUGCUUGCAUAGUAUUAAGUUA	0.173
UCCUGGAUCUCGUUGCAUAGUAUUUAGAAA	0.141

Items follow; give pre-steady-state target cleavage rate for each.
1. UCCUGGUACAGCUUGGAUAGUUUUUAGUUA
2. UCCUGCUACAGCUUGCAUUCUAUUUAGUAA
3. UCCUGGUACAGCUUGCAUAGAUUUUAGUAA
4. UCCUGGAUCAGCUUGCAUAGUAUUUUCUAA
5. UCCUGGAUCAGCUUGCAUAGAAUUUUGUUA
6. UCCUGGAAGAGGUUGCAUAGUAUUUAGUUA
7. UCCUGGAUGUCCUUGCAUAGUAUAAUCAAA [g8:g19:cont:t1A]

Result:
0.0597
0.0252
0.0172
0.0634
0.038
0.233
0.00606

Problem: Given the entry UCCUGCUACAGCUUGCAUAGUAUUAUAGUUA , report its measured pre-steady-state target cleavage rate.
Result: 0.189

Data origin: the supplement of paper PMC10338343
